- MEASUREMENT_NOTES: gradient 5% acetonitrile 3 min, to 50% in 2 min, to 85% in 15 min, held 3 min, 100 µL/min
- EXPERIMENTAL_PARAMETERS: column: Zorbax Extend-C18 2.1 x 50 mm; eluents: water / acetonitrile, 0.1% formic acid
RECORDED_METRIC: RP-LC retention time (s)

Reference set, count: 3
1) Cc1noc(C)c1CN1CCC(NC(=O)c2cccc(C#N)c2)C1 (stereo not given) ... 578
2) Cc1nc2cc(-c3noc(-c4cccc(Br)c4)n3)ccc2o1 ... 1270
3) O=C(CN1CC=C(c2cnn(-c3ccc(F)cc3)c2)CC1)N1CCN(c2ccc(F)cc2)CC1 ... 739

I = Cc1cccc(-c2noc(Cn3c(=O)n(-c4ccc(Cl)cc4)c(=O)c4sccc43)n2)c1
II = Cc1cccc(NC(=O)N2CC(N(C3CCOCC3)S(C)(=O)=O)C2)c1
Look at I and II . Which one has the lower recorded RP-LC retention time number? The response must carry the label of the picked entry.
II
(II: 706 s, I: 1100 s)

###

- MEASUREMENT_NOTES: gradient 5% acetonitrile 3 min, to 50% in 2 min, to 85% in 15 min, held 3 min, 100 µL/min
- EXPERIMENTAL_PARAMETERS: column: Zorbax Extend-C18 2.1 x 50 mm; eluents: water / acetonitrile, 0.1% formic acid
RECORDED_METRIC: RP-LC retention time (s)

1. COC(=O)c1ccc(NC(=O)Cc2csc(Nc3ccc(S(C)(=O)=O)cc3)n2)cc1 ... 698

A = CCCNC(=O)C1=Cc2cc(Br)ccc2OC=C1
B = CCOc1ccc(CC(=O)NCC2CCN(Cc3ccco3)CC2)cc1
Look at A and B . Which one has the lower recorded RP-LC retention time number? The response must carry the label of the picked entry.
B

I = O=C(Nc1cc(-c2cccs2)no1)c1cc(F)cc(F)c1
II = Cc1cccc(C)c1NC(=O)Cn1nc2n(c1=O)CCCCC2
Look at I and II . Which one has the lower recorded RP-LC retention time number? The response must carry the label of the picked entry.
II
(II: 684 s, I: 1010 s)

1 = CCOc1ccc(-c2[nH]ncc2CNS(=O)(=O)Cc2ccc(C)c(C)c2)cc1
2 = O=C(NCc1ccccc1F)c1ccc2ncnc(N3CCCC3)c2c1
Look at 1 and 2 . Which one has the lower recorded RP-LC retention time number? The response must carry the label of the picked entry.
2

###

- MEASUREMENT_NOTES: gradient 5% acetonitrile 3 min, to 50% in 2 min, to 85% in 15 min, held 3 min, 100 µL/min
- EXPERIMENTAL_PARAMETERS: column: Zorbax Extend-C18 2.1 x 50 mm; eluents: water / acetonitrile, 0.1% formic acid
RECORDED_METRIC: RP-LC retention time (s)

1. O=C(O)CCCCC(CCSCc1ccccc1)SCc1ccccc1 (stereo not given) ... 670
2. O=C(COc1ccc(F)cc1)NCC1(O)CCCC1 ... 667
3. CCn1c(=O)sc2cc(S(=O)(=O)N3CCC(C(=O)NCc4ccccc4)CC3)ccc21 ... 845
4. Cc1nccn1Cc1nc(-c2ccccc2Cl)no1 ... 624

A = Cc1cc(C)c(NC(=O)Cn2ncc3c(N4CCN(c5ccccn5)CC4)ncnc32)c(C)c1
B = CC(C)Cn1c(=O)c2ccccc2n(Cc2nc(-c3ccc(Br)cc3)no2)c1=O
C = COc1ccccc1Cc1noc(C2CN(S(=O)(=O)c3c(C)noc3C)C2)n1
Arrange these molecules by their RP-LC retention time, starting with the largest number. Form entry: labels listed in requested order.
B, C, A

1 = Cc1ccc(NC(=O)c2cccn2Cc2noc(C)n2)cc1
2 = CCOCCCNC(=O)CCc1c(-c2ccc(F)cc2)nc2ccccn12
Param pair: 1 , 2 . Output: the one whose RP-LC retention time is numerically greater. The response must carry the label of the picked entry.
1
